test-method-notes: Metabolic stability test (human liver microsome, hepatic intrinsic clearance)
Assay type: in vitro ADME
test-conditions: human liver microsomes, pH 7.4; human liver microsome 0.2 mg/mL, test compound 0.001 mmol/L, 37° C., 0, 10 and 20 minutes
Each entry below carries its recorded microsomal CLint at 0.001 mmol/L.

query-smiles: CC1(C)CN(c2ccc(OCCO)cc2Cl)[C@H]2CCCC[C@H]2N1
microsomal CLint at 0.001 mmol/L: < 50 µL/min/mg

Enquiry: Consider the molecule CC1(C)CN(c2ccc(OCCO)c3occc23)[C@H]2CCCC[C@H]2N1 and give its measured microsomal CLint at 0.001 mmol/L.
Return: < 50 µL/min/mg

Enquiry: Field entry: C[C@@H]1CN(c2cc(F)c(OCCO)c(Cl)c2)[C@H]2CCCC[C@@H]2N1
Return: < 50 µL/min/mg

Enquiry: Repeat with OCCOc1c(F)cc(N2CC3(CCC3)N[C@H]3CCCC[C@@H]32)cc1Cl
Return: < 50 µL/min/mg

Enquiry: Cool, now CC1(C)CN(c2ccc(OC(F)(F)CO)cc2)[C@@H]2CCCC[C@H]2N1
Return: < 50 µL/min/mg

Enquiry: Entry Cc1cc(N2CC(C)(C)N[C@H]3CCCC[C@@H]32)ccc1OC(F)(F)CO please
Return: < 50 µL/min/mg

* * *

Reported IC50 values are given for each entry in this list.
measured-on: norepinephrine (NE) uptake (Rattus norvegicus)
Construct: used as crude synaptosomal fraction; from tissue; host or cells: rat hippocampus, crude synaptosomal fraction
Sequence (Q63380 1-617): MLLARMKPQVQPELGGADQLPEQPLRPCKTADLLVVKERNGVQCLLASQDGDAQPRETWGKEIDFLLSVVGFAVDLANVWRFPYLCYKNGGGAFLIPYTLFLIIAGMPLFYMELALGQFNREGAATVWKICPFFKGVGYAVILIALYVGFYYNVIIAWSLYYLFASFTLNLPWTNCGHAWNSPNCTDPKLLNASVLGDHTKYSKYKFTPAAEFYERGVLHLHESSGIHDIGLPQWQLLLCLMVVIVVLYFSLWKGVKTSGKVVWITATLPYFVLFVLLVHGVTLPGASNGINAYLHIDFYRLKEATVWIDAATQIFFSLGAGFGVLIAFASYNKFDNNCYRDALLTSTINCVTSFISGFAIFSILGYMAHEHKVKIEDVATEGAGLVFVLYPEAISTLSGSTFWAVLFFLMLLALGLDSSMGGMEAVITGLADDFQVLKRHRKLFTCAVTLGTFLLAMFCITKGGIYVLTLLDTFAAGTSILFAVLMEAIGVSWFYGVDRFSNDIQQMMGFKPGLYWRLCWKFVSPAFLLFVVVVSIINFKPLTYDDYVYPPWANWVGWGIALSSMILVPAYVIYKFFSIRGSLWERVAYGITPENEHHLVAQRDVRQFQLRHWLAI
test-method-notes: Norepinephrine (NE) uptake inhibitory activity using rat brain synaptosome
Format: biochemical
test-conditions: rat hippocampus synaptosome, tritium-labeled NE 12 nM; read-out: IC50 (nM), norepinephrine (NE) uptake inhibition
Please state the figure in nM; there is no need to write the unit.

query-smiles: CC1(C)CN(c2ccc(OCCO)c(Cl)c2)[C@@H]2CCCC[C@H]2N1
IC50 [nM]: 9.7
//
query-smiles: CC1(C)CN(c2cc(Br)c(OCCO)cc2F)[C@H]2CCCC[C@H]2N1
IC50 [nM]: 6.9
//
query-smiles: Cc1cc(N2CC3(CCC3)N[C@H]3CCCC[C@@H]32)cc(F)c1OCCO
IC50 [nM]: 8.5

# context switch: different compound, same IC50
Enquiry: Recall the recorded IC50 for Cc1cc(N2CC(C)(C)N[C@H]3CCCC[C@@H]32)ccc1OC(F)(F)CO with norepinephrine (NE) uptake (Rattus norvegicus) and state it.
Return: 5.5

* * *

test-method-notes: Protein binding rate test (human serum, equilibrium dialysis)
Assay type: in vitro ADME
test-conditions: test compound 0.001 mmol/L, equilibrium dialysis 37° C. 6 hours
measured-property: fraction unbound at 6 h, 0.001 mmol/L

Example cases with answers are listed next.
query-smiles: CC1(C)CN(c2cc(Cl)c(OC(F)(F)CO)cc2F)[C@H]2CCCC[C@@H]2N1
fraction unbound at 6 h, 0.001 mmol/L: 0.277
--
query-smiles: CC1(C)CN(c2cc(Br)c(OCCO)cc2F)[C@H]2CCCC[C@H]2N1
fraction unbound at 6 h, 0.001 mmol/L: 0.404
--
query-smiles: Cc1c(OC(F)(F)CO)ccc(N2CC(C)(C)N[C@H]3CCCC[C@@H]32)c1F
fraction unbound at 6 h, 0.001 mmol/L: 0.289
--
query-smiles: Cc1c(OC(F)(F)CO)ccc(N2CC(C)(C)N[C@H]3CCCC[C@H]32)c1F
fraction unbound at 6 h, 0.001 mmol/L: 0.211
--
query-smiles: C[C@H]1CN(c2cc(F)c(OCCO)c(Cl)c2)[C@H]2CCCC[C@H]2N1
fraction unbound at 6 h, 0.001 mmol/L: 0.741

Turning now to a further compound:
Enquiry: GET /values?readout=fraction unbound at 6 h, 0.001 mmol/L&item= CC1(C)CN(c2cc(F)c(OC(F)(F)CO)cc2F)[C@H]2CCCC[C@@H]2N1
Return: 0.411

Where do the numbers come from? From patent US20240409519A1.
